Entries and their pIC50
target_or_system: Menin MLL 4-43 (Homo sapiens, UniProt O00255)
Sequence (O00255 whole entry): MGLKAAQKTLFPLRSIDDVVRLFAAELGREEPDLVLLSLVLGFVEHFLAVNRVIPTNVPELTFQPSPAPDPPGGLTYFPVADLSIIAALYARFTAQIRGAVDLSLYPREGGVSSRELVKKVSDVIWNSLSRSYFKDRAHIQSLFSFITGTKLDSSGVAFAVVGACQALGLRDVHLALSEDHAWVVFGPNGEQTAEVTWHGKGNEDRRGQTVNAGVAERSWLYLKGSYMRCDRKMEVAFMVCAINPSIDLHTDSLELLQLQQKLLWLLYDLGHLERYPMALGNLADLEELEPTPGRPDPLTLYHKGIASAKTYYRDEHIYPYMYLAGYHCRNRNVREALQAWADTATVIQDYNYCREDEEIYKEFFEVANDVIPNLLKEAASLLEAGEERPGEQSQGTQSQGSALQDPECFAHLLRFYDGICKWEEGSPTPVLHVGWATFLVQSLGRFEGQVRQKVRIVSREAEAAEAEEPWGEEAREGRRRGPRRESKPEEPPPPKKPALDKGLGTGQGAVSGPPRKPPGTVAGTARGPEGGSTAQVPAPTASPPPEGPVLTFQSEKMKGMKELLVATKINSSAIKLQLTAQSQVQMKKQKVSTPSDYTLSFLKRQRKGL
procedure_text: Fluorescence polarization (FP) competition assay of the menin-MLL interaction
Type: binding
measurement_context: fluorescence polarization assay; read-out: Menin MLL 4-43 IC50
pIC50: −log10 of the molar value.

molecule	pIC50
CNS(=O)(=O)C1CCN([C@@H](C)Cn2c(C#N)cc3c(C)c(CN4CCC(Nc5nc(OC)nc6sc(CC(F)(F)F)cc56)CC4)ccc32)CC1 [Compound 214]	> 7.30
Cc1c(CN2CCC(Nc3ncnc4sc(CC(F)(F)F)cc34)CC2)ccc2c1cc(C#N)n2C[C@@H](C)N1CCN(S(C)(=O)=O)[C@@H](C)C1 [Compound 17]	6.60 to 7.30
Cc1c(CN2CCC(Nc3ncnc4sc(CC(F)(F)F)cc34)CC2)ccc2c1cc(C#N)n2C(C)CN1CCN(S(C)(=O)=O)CC1 (stereo not drawn) [Compound 27]	> 7.30

====

Entries and their pIC50
target_or_system: Menin MLL 4-43 (Homo sapiens)
procedure_text: Fluorescence polarization (FP) competition assay of the menin-MLL interaction
Format: binding
measurement_context: fluorescence polarization assay; read-out: Menin MLL 4-43 IC50
pIC50: −log10 of the molar value.
result_type: pIC50

molecule	result_type	measurement
C=CC(=O)Nc1ccc(CCn2c(C#N)cc3c(C)c(CN4CCC(Nc5ncnc6sc(CC(F)(F)F)cc56)CC4)ccc32)cc1OCc1cn(CCOCCOCCOCCNC(=O)CCCC[C@H]2SC[C@H]3NC(=O)N[C@H]32)nn1 [Compound 1012]	pIC50	< 6.00
Cc1c(CN2CCC(Nc3ncnc4sc(CC(F)(F)F)cc34)CC2)ccc2c1cc(C#N)n2C[C@H](C)N1CCN(S(=O)(=O)N2CC2)CC1 [Compound 140]	pIC50	6.60 to 7.30
CNc1nc(NC2CCN(Cc3ccc4c(cc(C#N)n4C[C@H](C)N4CCN(S(=O)(=O)CF)CC4)c3C)CC2)c2cc(CC(F)(F)F)sc2n1 [Compound 198]	pIC50	6.60 to 7.30
Cc1c(CN2CCC(Nc3ncnc4sc(CC(F)(F)F)cc34)CC2)ccc2c1cc(C#N)n2C[C@H](C)N1CCN(S(=O)(=O)CCO)CC1 [Compound 85]	pIC50	> 7.30
Cc1c(CN2CCC(Nc3ncnc4sc(CC(F)(F)F)cc34)CC2)ccc2c1cc(C#N)n2CC(C)N1CC(NS(C)(=O)=O)C1 (stereo not drawn) [Compound 169]	pIC50	6.00 to 7.70
Cc1c(CN2CCC(Nc3ncnc4sc(CC(F)(F)F)cc34)CC2)ccc2c1cc(C#N)n2CC(C1CC1)N1CCN(S(C)(=O)=O)CC1 (stereo not drawn) [Compound 23]	pIC50	< 6.00

====

target_or_system: Menin MLL 4-43 (Homo sapiens, UniProt O00255)
procedure_text: Fluorescence polarization (FP) competition assay of the menin-MLL interaction
Type: binding
measurement_context: fluorescence polarization assay; read-out: Menin MLL 4-43 IC50
pIC50: −log10 of the molar value.
Entries and their pIC50

compound	pIC50
CCC(Cn1c(C#N)cc2c(C)c(CN3CCC(Nc4ncnc5sc(CC(F)(F)F)cc45)CC3)ccc21)N1CCN(S(C)(=O)=O)CC1 (stereo not drawn) [Compound 15]	< 6.00
[2H]C1([2H])N(C(C)Cn2c(C#N)cc3c(C)c(CN4CCC(Nc5ncnc6sc(CC(F)(F)F)cc56)CC4)ccc32)C([2H])([2H])C([2H])([2H])N(S(C)(=O)=O)C1([2H])[2H] (stereo not drawn) [Compound 161]	6.60 to 7.30
C[C@@H](Cn1c(C#N)cc2cc(CN3CCC(Nc4ncnc5sc(CC(F)(F)F)cc45)CC3)c(O)cc21)N1CCN(S(C)(=O)=O)CC1 [Compound 160]	6.60 to 7.30
Cc1nc(NC2CCN(Cc3ccc4c(cc(C#N)n4C[C@H](C)N4C5CCC4CN(S(C)(=O)=O)C5)c3C)CC2)c2cc(CC(F)(F)F)sc2n1 [Compound 283]	> 7.30
Cc1c(CN2CCC(Nc3ncnc4sc(CC(F)(F)F)cc34)CC2)ccc2c1cc(C#N)n2CC(C)N1C[C@@H](C)N(S(=O)(=O)CF)[C@H](C)C1 (stereo partly drawn) [Compound 124]	6.60 to 7.30
CNc1nc(NC2CCN(Cc3ccc4c(cc(C#N)n4C[C@H](C)N4CCN(S(=O)(=O)C5CC5)CC4)c3C)CC2)c2cc(CC(F)(F)F)sc2n1 [Compound 211]	6.60 to 7.30
Cc1c(CN2CCC(Nc3ncnc4sc(CC(F)(F)F)cc34)CC2)ccc2c1cc(C#N)n2C[C@H](C)N1CCN(S(=O)(=O)NCC(C)C)CC1 [Compound 120]	6.60 to 7.30
Cc1c(CN2CCC(Nc3ncnc4sc(CC(F)(F)F)cc34)CC2)ccc2c1cc(C#N)n2C[C@H](C)N1CCN(C(=O)C(F)(F)F)CC1 [Compound 118]	6.00 to 7.70
CNc1nc(NC2CCN(Cc3ccc4c(cc(C#N)n4C[C@H](C)N4CCC(S(C)(=O)=O)CC4)c3C)CC2)c2cc(CC(F)(F)F)sc2n1 [Compound 193]	> 7.30
Cc1c(CN2CCC(Nc3ncnc4sc(CC(F)(F)F)cc34)CC2)ccc2c1cc(C#N)n2CC(C)N1CCN(S(=O)(=O)N(C)C)CC1 (stereo not drawn) [Compound 87]	6.60 to 7.30
Cc1c(CN2CCC(Nc3nc(N)nc4sc(CC(F)(F)F)cc34)CC2)ccc2c1cc(C#N)n2C[C@H](C)N1CCN(S(C)(=O)=O)CC1 [Compound 135]	> 7.30
CNc1nc(NC2CCN(Cc3ccc4c(cc(C#N)n4C[C@H](C)N4CCN(S(=O)(=O)CC5CC5)CC4)c3C)CC2)c2cc(CC(F)(F)F)sc2n1 [Compound 250]	> 7.30
